tested.system: AMPA receptor
assay.comment: [3H]-AMPA binding inhibition activity
settings: about 45 nM [3H]-AMPA, rat cerebral membrane, 45 minutes on ice water
Assignment: determine reported pIC50 for the given molecules.
Give only the number. pIC50 is defined as minus log10 of concentration in molar units.

Fill in the blank: the reported pIC50 of `O=c1[nH]c2cc([N+](=O)[O-])c(-n3ccnc3)cc2n(CCCCOS(=O)(=O)O)c1=O` is ____.
7.41

I have this molecule here, `O=C(O)Cn1c(=O)c(=O)[nH]c2cc([N+](=O)[O-])c(-n3ccnc3)cc21` , and I need its recorded pIC50.
6.85
